# % Inhibition listing for each entry below
# System: P. falciparum stage V gametocytes
# Design: BacTiter-Glo ATP luminescence viability of purified stage V gametocytes in 384-well plates, per cent inhibition versus DMSO
# condition.info: 48 h, 5 µM; inhibitor
About 3,200 (25%) of roughly 13,000 compounds showed an effect of 50% or more. The list shows a part of the results.
Write the answer as a number in %, unit excluded.

Cc1nc(Cl)c2c(-c3ccccc3)csc2n1 [TCMDC-125437] : -3.595
CC[C@H](C)CNC(=O)c1ccc(-c2cccc(CN3CCC(N4CCCC4)CC3)c2)nc1 [TCMDC-134222] : 28.35

Proceeding to the next molecule to report its % Inhibition.
State % Inhibition (P. falciparum stage V gametocytes) of COc1ccc(-c2ccnc(-c3cccc(-c4ccccn4)n3)c2)cc1 [TCMDC-125008] .
155.4

---

# System: P. falciparum stage V gametocytes
# Design: BacTiter-Glo ATP luminescence viability of purified stage V gametocytes in 384-well plates, per cent inhibition versus DMSO
# condition.info: 48 h, 5 µM; inhibitor
Hit rate of the full screen: of about 13,000 compounds, about 3,200 (25%) showed an effect of 50% or more. Some of the results follow.
Decide by % Inhibition: equal to or exceeding 20% means fulfilled, less means not fulfilled.

Answered cases to consult:
CCOc1cc(/C=N/Nc2nc3ccccc3[nH]2)ccc1OCc1ccc([N+](=O)[O-])cc1 [TCMDC-124191] : not fulfilled
O=C(Nc1cccc(CN2CCN(C(=O)c3cccc(F)c3)CC2)c1)c1cccs1 [TCMDC-136330] : fulfilled

Check if % Inhibition >= 20% (inclusive). Item: CC[C@H](NC(=O)c1c(N)c(-c2sccc2Cl)nc2ccccc12)c1ccccc1 [TCMDC-141650]
not fulfilled

Check if % Inhibition >= 20% (inclusive). Item: O=C(Nc1cccc(CN2CCCN(Cc3ccc(F)cc3)CC2)c1)c1cc2ccccc2s1 [TCMDC-141876]
fulfilled

Check if % Inhibition >= 20% (inclusive). Item: Cc1ccc(CN2CCN(Cc3cccc(NC(=O)c4cccs4)c3)CC2)cc1C [TCMDC-141888]
fulfilled

Check if % Inhibition >= 20% (inclusive). Item: Cc1ccc(CN2CCN(Cc3cccc(NC(=O)c4ccc5ccccc5c4)c3)CC2)cc1C [TCMDC-141887]
not fulfilled

Check if % Inhibition >= 20% (inclusive). Item: Clc1ccc(CNCCCCCCCNCc2ccc(Cl)c(Cl)c2)cc1Cl [TCMDC-138075]
not fulfilled

Check if % Inhibition >= 20% (inclusive). Item: Cc1cccc(C(=O)N2CCN(Cc3cccc(NC(=O)c4cccs4)c3)CC2)c1 [TCMDC-136328]
not fulfilled

Check if % Inhibition >= 20% (inclusive). Item: N=C(N=C(NCCCCCCNC(=NC(=N)NCc1ccc(Cl)c(Cl)c1)N1CCCCC1)N1CCCCC1)NCc1ccc(Cl)c(Cl)c1 [TCMDC-131816]
fulfilled

Check if % Inhibition >= 20% (inclusive). Item: O=C(/C=C/c1ccc(C(F)(F)F)cc1)NCCCCCN1CCN(C(=O)Nc2ccc(Cl)cc2)CC1 [TCMDC-136095]
not fulfilled

---

# Tested on: P. falciparum stage V gametocytes
# Set-up: BacTiter-Glo ATP luminescence viability of purified stage V gametocytes in 384-well plates, per cent inhibition versus DMSO
# condition.info: 48 h, 5 µM; inhibitor
Out of some 13,000 compounds screened, about 3,200 (25%) showed an effect of 50% or more. This is one part of the list.
readout.name: % Inhibition (%)
Write the answer as a number in %, unit excluded.

Some compounds with known % Inhibition results, for comparison:
CC(=O)N[C@H](C(=O)Nc1ccc(-c2ccc(-c3nc4ccc(C(F)(F)F)cc4[nH]3)cc2)cc1)C(C)C [TCMDC-136854] : -3.438
CC12CCC(CN(CC(O)Cn3c4ccccc4c4cc(I)ccc43)C1)C2(C)C (stereo not drawn) [TCMDC-124075] : -73.11
CC(C)CSc1cc(C(=O)Nc2cc(Cl)ccc2O)ccn1 [TCMDC-138874] : -25.81
Cc1nn(CC(O)Cn2c3ccc(Br)cc3c3cc(Br)ccc32)c(C)c1Br (stereo not drawn) [TCMDC-124164] : 72.64
COCCN1CCC(N(Cc2ccc(-c3ccc(C(F)(F)F)cc3)cc2)C(=O)Cn2c(CCc3cccc(F)c3F)cc(=O)c3c2CCC3)CC1 [TCMDC-141266] : 34.4

State % Inhibition (P. falciparum stage V gametocytes) of CC(=O)Nc1ncc(C(=O)Nc2ccc(-c3cccc(-c4nc5ccc(C(F)(F)F)cc5[nH]4)c3)cc2)s1 [TCMDC-136919] .
-27.65

State % Inhibition (P. falciparum stage V gametocytes) of COCCn1c(-c2cccc(Cl)c2)nn(-c2ccc([N+](=O)[O-])cc2C#N)c1=S [TCMDC-134719] .
95.24

State % Inhibition (P. falciparum stage V gametocytes) of Oc1ccc2ccccc2c1CNC1CCCCCC1 [TCMDC-137607] .
9.064
